# Test Description: binders of probe aFGF2 on microarray, primary screen, stem cell growth factor project, biochemical, small-molecule microarray, fluorescence 635/667 (AID 1067);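 further: measures binding of biotinylated aFGF2 protein to printed compounds on slides; z-score merges feature fluorescence and signal-to-noise across triplicate slides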
# Condition Context: higher = more signal
Measurement Name: composite z-score
Answer using only a numeral; do not append any unit.

// query composite z-score value for entry CCOC(=O)[C@H]1C/C=C/C[C@H](C(=O)OCC)C(=O)O[C@H]2[C@@H](OC)O[C@H](CO)[C@@H](OC(=O)Nc3ccc(Br)cc3)[C@@H]2OC1=O
-0.108

// query composite z-score value for entry C=CCOC(=O)[C@@H]1[C@H]2C(=O)O[C@H](c3ccccc3)[C@H](c3ccccc3)N2[C@H](c2ccc(OCCOC(=O)[C@H]3C[C@H]4C(=O)N[C@@H](CCCCNC(C)=O)C(=O)N4[C@H]3c3ccc(O)cc3)cc2)[C@@]12C(=O)Nc1ccc(I)cc12
0.0435

// query composite z-score value for entry CC(=O)NCCCC[C@@H]1NC(=O)[C@@H]2C[C@H](C(=O)NCCCCCCN(C)C)[C@H](c3ccc(O)cc3)N2C1=O
0.0513

// query composite z-score value for entry N#Cc1ccc(NN2C(C(O)CCc3ccccc3)C=CC3C(=O)N(c4ccccc4)C(=O)C32)cc1 (stereo not drawn)
0.078

// query composite z-score value for entry CO[C@@H]1COC(=O)CC=C[C@H](C)COC(=O)[C@H](Cc2ccccc2)NC(=O)CC=C[C@H]1C
-0.265

// query composite z-score value for entry COC(=O)c1c(CC[C@@H](CO)NC(=O)N[C@H](Cn2cc(-c3cncn3C)nn2)C(C)C)oc(C(C)=O)c1C(=O)OC
-0.043

// query composite z-score value for entry CCCNC(=O)[C@@H]1c2ccccc2C(=O)N(Cc2cc(F)cc(C(F)(F)F)c2)[C@H]1c1ccc(CO)cc1
0.032

// query composite z-score value for entry C[N+](C)(C)CCCCNC(=O)[C@@H]1C[C@@H]2C(=O)N3CCC[C@H]3C(=O)N2[C@@H]1c1cccc(OCCO)c1
-0.148

// query composite z-score value for entry CO[C@@H]1COC(=O)[C@H](C)NC(=O)CC=C[C@@H](C)[C@H](NS(=O)(=O)c2ccc(C)cc2)COC(=O)CC=C[C@@H]1C
-0.0891

// query composite z-score value for entry CN1C(=O)C2C=CC(C(O)C3CC=CCC3)N(Nc3ccccc3)C2C1=O (stereo not drawn)
0.0631

====

# Test Description: small-molecule microarray binders of probe aShh, primary screen, biochemical, biotinylated probe, 635/667 nm fluorescence (AID 1114);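 further: probe is biotin-labelled aShh protein from a stem cell growth factor screen; measures binding of labelled protein to compounds printed on the slide; score merges feature fluorescence at 667 nm with signal-to-noise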
# Condition Context: higher = more signal
Label 1 when composite z-score >= -0.09; otherwise -1.

Examples from the recorded data:
INSERT INTO results (compound, label) VALUES
  ('C=CC[C@]1(C(=O)NCC(O)CO)N=C(c2ccc(OCCCO)cc2)O[C@H]1c1ccccc1 (some centres undefined)', 1),
  ('CO[C@@H]1COC(=O)[C@H](C)NC(=O)CC=C[C@@H](C)[C@H](NS(=O)(=O)c2ccc(C)cc2)COC(=O)CC=C[C@@H]1C', -1),
  ('CO[C@@H]1COC(=O)[C@H](COCc2ccccc2)NC(=O)CC=C[C@@H](C)[C@H](OC)COC(=O)[C@H](COCc2ccccc2)NC(=O)CC=C[C@H]1C', 1),
  ('COC(=O)[C@@]1(Cc2ccccc2N=[N+]=[N-])N=C(c2ccc(OCCCO)cc2)O[C@H]1c1ccccc1CN=[N+]=[N-]', -1),
  ('C=CCC1=C[C@H]2[C@H]([C@@H]3C=C[C@]2(CC=C)C(=O)[C@]32CO2)[C@@]2(CO2)C1=O', -1);

Could you please find out whether CC(C)N1CC=CC23O[C@@H]4/C=C\CCCOC(=O)C4[C@H]2C(=O)N(CCCCCO)[C@@H]3C1=O (some centres undefined) has composite z-score that meets -0.09 or exceeds it?
-1

Could you please find out whether COCC(=C=CC[C@H](O)c1ccc(OCCO)cc1)C[C@H](O)c1ccccn1 has composite z-score that meets -0.09 or exceeds it?
1

Could you please find out whether [N-]=[N+]=NCc1ccccc1[C@H]1OC(c2ccc(OCCCO)cc2)=N[C@@]1(Cc1ccccc1N=[N+]=[N-])C(=O)NCc1ccccc1 has composite z-score that meets -0.09 or exceeds it?
1

====

# Test Description: small-molecule binders of probe aLefty1, primary screen, biochemical, small-molecule microarray, 635/667 nm fluorescence (AID 1153);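 further: score merges spot fluorescence with signal-to-noise ratio from the scanned slide images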
# Condition Context: higher = more signal
composite z-score values for the compounds below.
Answer using only a numeral; do not append any unit.

// query composite z-score value for entry COC(=O)C(CC#Cc1ccc2c(c1)[C@]1(C(=O)N2)[C@H](C(=O)N2CCCCCCC2)[C@H]2C(=O)O[C@H](c3ccccc3)[C@H](c3ccccc3)N2[C@@H]1c1ccc(O)cc1)C(=O)OC
0.297

// query composite z-score value for entry CCCC=C(CCC)[C@@H](NC(=O)c1ccc(C(F)(F)F)cc1)c1ccccc1
0.718

====

# Assayed Target: Torsin-1A (Homo sapiens) (UniProt O14656)
# Sequence (O14656 whole entry, looked up): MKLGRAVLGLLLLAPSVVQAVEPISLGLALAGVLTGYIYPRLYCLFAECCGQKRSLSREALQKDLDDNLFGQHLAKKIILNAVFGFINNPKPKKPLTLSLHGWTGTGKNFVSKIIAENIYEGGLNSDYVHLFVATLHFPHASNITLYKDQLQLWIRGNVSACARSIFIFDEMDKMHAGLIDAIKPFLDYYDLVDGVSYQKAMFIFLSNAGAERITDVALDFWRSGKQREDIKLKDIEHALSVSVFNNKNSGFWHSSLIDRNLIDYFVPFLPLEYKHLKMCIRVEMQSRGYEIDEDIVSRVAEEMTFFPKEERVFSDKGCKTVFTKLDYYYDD
# Test Description: small-molecule binders of mutant TOR1A in lysate, primary screen, cell lysate, small-molecule microarray, COS7 lysate, 635/667 nm fluorescence (AID 1150);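 further: score pools 667 nm emission and signal to noise measuring lysate protein binding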
# Condition Context: COS7 hTOR1A mutant lysate, 635 nm fluorescence, higher = more signal
composite z-score values for the compounds below.
Answer using only a numeral; do not append any unit.

Example results:
INSERT INTO assay_data (record_smiles, measurement_name, value_reported) VALUES
  ('NC(=O)NCC#Cc1ccc2c(c1)[C@]1(C(=O)N2)[C@H](C(N)=O)[C@H]2C(=O)O[C@H](c3ccccc3)[C@H](c3ccccc3)N2[C@@H]1c1ccccc1OCCO', 'composite z-score', 0.396),
  ('[N-]=[N+]=NCc1ccccc1C[C@]1(C(N)=O)N=C(c2ccc(OCCCO)cc2)O[C@H]1c1ccccc1CN=[N+]=[N-]', 'composite z-score', 0.369),
  ('C[C@]1(C(=O)NCCN2CCOCC2)c2ccccc2C(=O)N(Cc2ccccc2)[C@H]1c1ccc(CO)cc1', 'composite z-score', 0.915),
  ('COC(=O)C1=C(C)N(Cc2ccccc2)c2c(C(=O)OC)c(C(=O)OC)c(C(=O)OC)c(=O)n2[C@@H]1c1ccccc1', 'composite z-score', 0.505),
  ('O=C(NCC(F)(F)F)[C@@H]1c2ccccc2C(=O)N(Cc2ccccc2Cl)[C@H]1c1ccc(CO)cc1', 'composite z-score', 0.986);

// query composite z-score value for entry COc1ccc([Si](C)(C)[C@H]2[C@H](CC(=O)N(CCO)Cc3ccccc3)O[C@@]3(C(=O)N(C)c4ccccc43)[C@@H]2C)cc1
0.83

// query composite z-score value for entry C=C(/C(=C/C[C@@H](OC(=O)c1ccncc1)c1ccc(CO)o1)c1cnc2ccccc2c1)C(C)C
0.475

====

# Test Description: E. coli growth modulation, two-sided OD650, primary screen, E. coli filamentation project, strain DRC41, 24 h (AID 1093);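 further: MC1000 strain lacking acrAB efflux and sulA so SOS filamentation is blocked; test concentration not given here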
# Condition Context: OD650, 24 h, higher = more signal, called active from +8 up or from −8 down
z-score values for the compounds below.
Answer using only a numeral; do not append any unit.

Example results:
INSERT INTO results (compound, value_reported) VALUES
  ('COCCOC(=O)N1C(=O)[C@@]2(c3cc(C#CCNC(N)=O)ccc31)[C@H](c1ccc(OCCO)cc1)N1[C@H](c3ccccc3)[C@H](c3ccccc3)OC(=O)[C@H]1[C@@H]2C(=O)N1CCCCCCC1', 2.27),
  ('CC(C)NC(=O)[C@@]1(Cc2ccccc2I)c2ccccc2C(=O)N(C2CCCCC2)[C@H]1c1ccc(CO)cc1', -0.432),
  ('CC(C)N1CC=CC23O[C@@H]4/C=C\CCCOC(=O)C4[C@H]2C(=O)N(CCO)[C@@H]3C1=O (some centres not stated)', 3.25),
  ('CO[C@H]1COC(=O)CC=C[C@H](C)[C@@H](OC)COC(=O)[C@H](Cc2ccccc2)NC(=O)CC=C[C@@H]1C', -0.145),
  ('CCCC=C(CCC)[C@@H](NS(=O)(=O)c1cccc(C(F)(F)F)c1)c1ccc(C(=O)OC)cc1', -0.228);

// query z-score value for entry C[C@@H]1C=CCC(=O)OC[C@H]2O[C@@H](C=C[C@@H]2O)[C@H](C)C=CCC(=O)OC[C@H]2O[C@H]1C=C[C@@H]2O
0.332

// query z-score value for entry CO[C@@H]1COC(=O)CC=C[C@H](C)COC(=O)[C@H](Cc2ccccc2)NC(=O)CC=C[C@H]1C
-0.0298

====

# Assayed Target: Alpha-bungarotoxin (Bungarus multicinctus)
# Test Description: alpha-bungarotoxin binders on microarray, profiling panel, artefact control for SMM control protein annotation, biochemical, small-molecule microarray, Alexa647 label, 635/667 nm fluorescence (AID 1117)
# Condition Context: alpha-BTX-A647 binding fluorescence, higher = more signal
Measurement Name: composite z-score
Answer using only a numeral; do not append any unit.

INSERT INTO assay_data (molecule, value_reported) VALUES
  ('[N-]=[N+]=NCc1ccccc1C[C@@]1(C(=O)O)N=C(c2ccc(OCCCO)cc2)O[C@@H]1c1ccccc1N=[N+]=[N-]', 0.552),
  ('CCCCCCc1nc(C2CC2)c(C)c2c1[Si](C(C)C)(C(C)C)OC2', 0.342);

// query composite z-score value for entry C[N+](C)(C)CCCCNC(=O)[C@@H]1C[C@@H]2C(=O)N3CCC[C@H]3C(=O)N2[C@@H]1c1cccc(OCCO)c1
1.16

// query composite z-score value for entry O=C1C[C@@](C(=O)NC2CC2)(c2ccc([N+](=O)[O-])cc2)[C@@H](c2ccc(CO)cc2I)N1CC12CC3CC(CC(C3)C1)C2
0.905

// query composite z-score value for entry Cc1ccc(N2C(=O)c3ccccc3[C@@H](C(=O)NCc3ccccc3)[C@@H]2c2ccc(CO)cc2)nc1
-0.326

// query composite z-score value for entry CCC#CCN(Cc1ccccc1Br)[C@H](/C=C/c1ccccc1)[C@@H](O)Cc1ccccc1
-0.0441
